# TESTED_TARGET: full length human TREX1 (Homo sapiens, UniProt Q9NSU2)
# Construct: N-terminally His-Tev tagged full length human TREX1; made in house; host or cells: E. coli
# Sequence (Q9NSU2 1-314): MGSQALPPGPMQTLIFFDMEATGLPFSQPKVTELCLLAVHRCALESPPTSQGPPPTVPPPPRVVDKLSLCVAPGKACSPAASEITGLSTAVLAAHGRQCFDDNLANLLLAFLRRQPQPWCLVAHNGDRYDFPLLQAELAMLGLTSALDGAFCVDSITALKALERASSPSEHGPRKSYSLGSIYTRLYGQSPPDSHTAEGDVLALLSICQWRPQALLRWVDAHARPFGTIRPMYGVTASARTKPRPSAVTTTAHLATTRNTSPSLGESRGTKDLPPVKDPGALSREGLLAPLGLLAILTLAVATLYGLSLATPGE
# PROTOCOL_DESCRIPTION: hTREX1 Biochemical Assay (fluorescence, dsDNA substrate degradation)
# CONDITION_DETAILS: biochemical, read-out: hTREX1 IC50
pIC50: −log10 of the molar value.
REPORTED_ENDPOINT: pIC50

{"COMPOUND": "CC(c1nc(C(=O)Nc2cnoc2)c(O)c(=O)n1C)C(c1nnn(C)n1)c1ccccc1C#N (single isomer, unassigned) [Example 79 D2E1]", "TESTED_TARGET": "full length human TREX1 (Homo sapiens, UniProt Q9NSU2)", "TEST_VALUE": "8.00 to 9.00"}
{"COMPOUND": "CC(c1nc(C(=O)Nc2cnoc2)c(O)c(=O)n1C)C(c1cnn(C(C)(C)CC#N)c1)c1cc(F)ccc1Cl (single isomer, unassigned) [Example 100 D1E2]", "TESTED_TARGET": "full length human TREX1 (Homo sapiens, UniProt Q9NSU2)", "TEST_VALUE": "8.00 to 9.00"}
{"COMPOUND": "CC(c1nc(C(=O)Nc2cnoc2)c(O)c(=O)n1C)C(c1cnn(CC2COC2)c1)c1ccccc1Cl (single isomer, unassigned) [Example 88 D1E2]", "TESTED_TARGET": "full length human TREX1 (Homo sapiens, UniProt Q9NSU2)", "TEST_VALUE": "8.00 to 9.00"}
{"COMPOUND": "CCn1cc(C(c2cc(F)ccc2Cl)C(C)c2nc(C(=O)Nc3cnoc3)c(O)c(=O)n2C)cn1 (single isomer, unassigned) [Example 60 D1E1]", "TESTED_TARGET": "full length human TREX1 (Homo sapiens, UniProt Q9NSU2)", "TEST_VALUE": "> 9.00"}
{"COMPOUND": "Cc1nc(C)c(C(c2ccccc2C#N)C(C)c2nc(C(=O)Nc3cnoc3)c(O)c(=O)n2C)nc1C (single isomer, unassigned) [Example 122 D2E1]", "TESTED_TARGET": "full length human TREX1 (Homo sapiens, UniProt Q9NSU2)", "TEST_VALUE": "8.00 to 9.00"}
{"COMPOUND": "CC(c1nc(C(=O)Nc2cnoc2)c(O)c(=O)n1C)C(c1ncn(C)n1)c1ccccc1C#N (single isomer, unassigned) [Example 51 D2E2]", "TESTED_TARGET": "full length human TREX1 (Homo sapiens, UniProt Q9NSU2)", "TEST_VALUE": "< 8.00"}
{"COMPOUND": "COCCn1ncc(C(c2ccccc2C#N)C(C)c2nc(C(=O)Nc3cnoc3)c(O)c(=O)n2C)c1C (single isomer, unassigned) [Example 69 D1E2]", "TESTED_TARGET": "full length human TREX1 (Homo sapiens, UniProt Q9NSU2)", "TEST_VALUE": "< 8.00"}
{"COMPOUND": "CCn1cc(C(c2cc(F)ccc2Cl)C(C)c2nc(C(=O)Nc3cnoc3)c(O)c(=O)n2C)cn1 (single isomer, unassigned) [Example 60 D1E2]", "TESTED_TARGET": "full length human TREX1 (Homo sapiens, UniProt Q9NSU2)", "TEST_VALUE": "8.00 to 9.00"}
{"COMPOUND": "CC(c1nc(C(=O)Nc2cnoc2)c(O)c(=O)n1C)C(c1cnn(C)c1)c1cccnc1C#N (single isomer, unassigned) [Example 7 D2E2]", "TESTED_TARGET": "full length human TREX1 (Homo sapiens, UniProt Q9NSU2)", "TEST_VALUE": "< 8.00"}
